experimental details: yeast display, Sf9 membrane polyspecificity reagent, FACS + sequencing; frameworks hold sequencing errors
parameter measured: polyreactivity (PSR sort gate)

Previously resolved entries follow.
item_sequence=QVQLVESGGGLVQAGGSLRLSCAASGRTFTTIAMGWYRQAPGKERELVSAINSGGSTNYADSVKGRFTISRDNAKNTVYLQMNSLKPEDTAVYYCAKRQRDYSSVFDVDYWGQGTQVTVSS observed_value="low polyreactivity"
item_sequence=QVQLVESGGGLVQAGGSLRLSCAASGSIFFRYAMGWYRQAPGKERELVAGITYSSGSSTYADSVKGRFTISRHNAKNTVYLQMNSLKPEDTAVYYCAAAYRFPGNRYDYWGQGTQVTVSS observed_value="low polyreactivity"
item_sequence=QVQLVESGGGLVQAGGSLRLSCAASGRIFSKNAMGWYRQAPGKERELVAAISSRGGSTYYADSVKGRFTISRDNAKNTVYLQMNSLKPEDTAVYYCAAGNGAYNYWCRYGYWGQGTQVTVSS observed_value="high polyreactivity"
item_sequence=QVQLVESGGGLVQAGRSLRLSCAASGITFYKNAMGWYRQAPGKERELVAAISSGGATTYADSVKGRFTISRDNAKNTVYLQMNSLKPEDSAVYYCAAVTRDYRNERRRQRYFYWGQGTQVTVSS observed_value="high polyreactivity"
item_sequence=QVQLVESGGGLVQAGGSLRLSCAASGRIFSRYAMGWYRQAPGKERELVAAISRRGGSTYYADSVKGRFTISRDNAKNTVYLQMNSLKPEDTAVYYCAADFSPYYDLATEISDYWGQGTQVTVSS observed_value="high polyreactivity"
item_sequence=QVQLVESGGGIVQAGGSLRLSCAASGFIFAGNAMGWSSQAPGKERELVAAITRRGGSTHYADSVKGRFTISRDKAKYTVYLQMNSLKPEDTAVYYCNAAVQPPWSDYWGQGTQVTVSS observed_value="low polyreactivity"
item_sequence=QFQLVESGGGLVQAGGSLRLSCAASGSTFGVNAMGWYRQAPGKERELVAAISSSGSSTYADSVKGRFTISRDNAKNTVYLQMNSLKPEDTAVYYCNKTTLLTVEYDYWGQGTQVTVSS observed_value="low polyreactivity"
item_sequence=QVQLVESGGGLVQAGGSLRLSCPASGFTFVTNAMGWYRQAPGKERELVAAISKSGDRTYYADSVKGRFTISRDNAKNTVYLQMNSLKPEDTAVYYCAAGNSNWGQGTQVTVSS observed_value="high polyreactivity"
item_sequence=QVQLVESGGGLVQAGGSLRLSCASSGYTFYAYAMGWYRQAPGKERELVAAISGSGGNTRYADSVKGRFTISRDNAKNTVYLQMNILKPEDTAVYYCAKRIIRSPFGAYGYWGQGTQVTVSS observed_value="high polyreactivity"
item_sequence=QVQIVESGGGLVQAGGSLRLSCAASGSTFVENAMGWYRPAPGKERELVAAISSSGDSTFYADSVKGRFTISRDNAKNNVYLQMNSLKPEDTAVYYCAADRRINYDGLDMDYWGQGTQVTVSS observed_value="low polyreactivity"

Could you now consider this next sequence?
Q. Report polyreactivity (PSR sort gate) for `QVQLVESGGGLVQAGGSLRLSCAASGRTFQTNAMGWYRQAPGKVRELVAAISSTGGSTYYADSVKGRFTISRDNAKYTVYLQMNSLKPEDTAVYYCNAGRTYRYDYWGQGTQVTVSS` please.
A. high polyreactivity
